These data points were gathered from the supplement of paper PMC10307832.

relative viability listing for selected compounds.
Tested on: LCLC-97TM1
MEASUREMENT NOTES: relative viability (nuclei count vs DMSO), 5 days (fraction); higher = more cells survive
EXPERIMENTAL CONTEXT: first compound 0.1265 µM
VALUE TYPE: relative viability

* Clc1ccc(Nc2nnc(Cc3ccncc3)c3ccccc23)cc1 [Vatalanib] + C[C@@H](Oc1cc(-c2cnn(C3CCNCC3)c2)cnc1N)c1c(Cl)ccc(F)c1Cl [Crizotinib] (partner 1 µM) | 0.312
* COc1cc(N2CCC(C(N)=O)CC2)ccc1Nc1nc(N)c(Cl)c(Nc2ccccc2S(=O)(=O)C(C)C)n1 [HG-5-88-01] + CS(=O)(=O)CCNCc1ccc(-c2ccc3ncnc(Nc4ccc(OCc5cccc(F)c5)c(Cl)c4)c3c2)o1 [Lapatinib] (partner 2 µM) | 0.95
* Clc1ccc(Nc2nnc(Cc3ccncc3)c3ccccc23)cc1 [Vatalanib] + Cc1nc(Nc2ncc(C(=O)Nc3c(C)cccc3Cl)s2)cc(N2CCN(CCO)CC2)n1 [Dasatinib] (partner 0.075 µM) | 0.621
* C[C@@H]1CN(CC(=O)Nc2ccc3c(c2)Cc2cccc(-c4cc(=O)cc(N5CCOCC5)o4)c2S3)C[C@H](C)O1 + N=C(N)NC(=N)NCCc1ccccc1 [Phenformin] (partner 250 µM) | 0.469
* Clc1ccc(Nc2nnc(Cc3ccncc3)c3ccccc23)cc1 [Vatalanib] + CS(=O)(=O)CCNCc1ccc(-c2ccc3ncnc(Nc4ccc(OCc5cccc(F)c5)c(Cl)c4)c3c2)o1 [Lapatinib] (partner 2 µM) | 0.847
* C[C@@H]1CN(CC(=O)Nc2ccc3c(c2)Cc2cccc(-c4cc(=O)cc(N5CCOCC5)o4)c2S3)C[C@H](C)O1 + Nc1ncn([C@H]2C[C@H](O)[C@@H](CO)O2)c(=O)n1 [Decitabine] (partner 2 µM) | 0.231
* C[C@@H]1CN(CC(=O)Nc2ccc3c(c2)Cc2cccc(-c4cc(=O)cc(N5CCOCC5)o4)c2S3)C[C@H](C)O1 + Cc1nc(Nc2ncc(C(=O)Nc3c(C)cccc3Cl)s2)cc(N2CCN(CCO)CC2)n1 [Dasatinib] (partner 0.075 µM) | 0.744
* COc1cc(N2CCC(C(N)=O)CC2)ccc1Nc1nc(N)c(Cl)c(Nc2ccccc2S(=O)(=O)C(C)C)n1 [HG-5-88-01] + CCNC(=O)c1noc(-c2cc(C(C)C)c(O)cc2O)c1-c1ccc(CN2CCOCC2)cc1 [Luminespib] (partner 0.01 µM) | 0.647
* C[C@@H]1CN(CC(=O)Nc2ccc3c(c2)Cc2cccc(-c4cc(=O)cc(N5CCOCC5)o4)c2S3)C[C@H](C)O1 + CC(=O)Nc1cccc(-n2c(=O)n(C3CC3)c(=O)c3c(Nc4ccc(I)cc4F)n(C)c(=O)c(C)c32)c1 [Trametinib] (partner 0.02 µM) | 0.165
* COc1cc(N2CCC(C(N)=O)CC2)ccc1Nc1nc(N)c(Cl)c(Nc2ccccc2S(=O)(=O)C(C)C)n1 [HG-5-88-01] + COc1cccc2cc(-c3nc([C@H]4CC[C@H](C(=O)O)CC4)n4ncnc(N)c34)[nH]c12 [OSI-027] (partner 0.5 µM) | 0.521
* Clc1ccc(Nc2nnc(Cc3ccncc3)c3ccccc23)cc1 [Vatalanib] + COc1cccc2cc(-c3nc([C@H]4CC[C@H](C(=O)O)CC4)n4ncnc(N)c34)[nH]c12 [OSI-027] (partner 0.5 µM) | 0.398
* COc1cc(N2CCC(C(N)=O)CC2)ccc1Nc1nc(N)c(Cl)c(Nc2ccccc2S(=O)(=O)C(C)C)n1 [HG-5-88-01] + O=C(CCCCCCC(=O)Nc1ccccc1)NO [Vorinostat] (partner 1 µM) | 0.757
